IC50 by entry:
- TEST SYSTEM: MAP kinase p38 (Homo sapiens, UniProt O15264+Q15759+Q16539+P53778)
- PROCEDURE TEXT: Inhibitory activity against induction of IL-1-beta release in PBMCs
- Type: functional
// note: answer is a bare numeric in nM

CSc1nc(-c2ccc(F)cc2)c(-c2ccnc(NCc3ccc(Cl)cc3)c2)[nH]1 = 150

Task: Provide MAP kinase p38 (Homo sapiens, UniProt O15264+Q15759+Q16539+P53778) IC50 reading for CSc1nc(-c2ccc(F)cc2)c(-c2ccncc2)[nH]1 .
Output: 44

Task: Quote MAP kinase p38 (Homo sapiens, UniProt O15264+Q15759+Q16539+P53778) IC50 for entry COc1ccc(CNc2cc(-c3[nH]c(SC)nc3-c3ccc(F)cc3)ccn2)cc1 .
Output: 56

Task: Give measured IC50 for CSc1nc(-c2ccc(F)cc2)c(-c2ccnc(NCCc3ccccc3)c2)[nH]1 (MAP kinase p38 (Homo sapiens, UniProt O15264+Q15759+Q16539+P53778)).
Output: 31

Task: Give measured IC50 for CCCn1c(SC)nc(-c2ccc(F)cc2)c1-c1ccnc(N)c1 (MAP kinase p38 (Homo sapiens, UniProt O15264+Q15759+Q16539+P53778)).
Output: 500

Task: State IC50 on MAP kinase p38 (Homo sapiens, UniProt O15264+Q15759+Q16539+P53778). Entry: CSc1nc(-c2ccc(F)cc2)c(-c2ccnc(NC(C)=O)c2)n1C
Output: 75

###

- TEST SYSTEM: MAP kinase p38 (Homo sapiens, UniProt O15264+Q15759+Q16539+P53778)
- PROCEDURE TEXT: Inhibitory activity against TNF-alpha release in PBM cells
- Format: functional, cell-based
Decision: IC50 beneath 3 µM gives TRUE; IC50 meeting or exceeding 3 µM gives FALSE.

Below are worked cases with known answers.
CSc1nc(-c2ccc(F)cc2)c(-c2ccnc(NCCc3ccccc3)c2)[nH]1 = TRUE
Fc1ccc(-c2[nH]c(SCc3ccccc3)nc2-c2ccnc(NCc3ccccc3)c2)cc1 = FALSE
CCNc1cc(-c2c(-c3ccc(F)cc3)nc(SC)n2C2CC(C)(C)NC(C)(C)C2)ccn1 = TRUE
C[S+]([O-])c1ccc(CSc2nc(-c3ccc(F)cc3)c(-c3ccncc3)[nH]2)cc1 (centres undefined) = TRUE
C[S+]([O-])c1ccc(CSc2nc(-c3ccc(F)cc3)c(-c3ccnc(Cl)c3)[nH]2)cc1 (centres undefined) = FALSE
C[S+]([O-])c1ccc(CSc2nc(-c3ccc(F)cc3)c(-c3ccnc(NCc4ccccc4)c3)[nH]2)cc1 (centres undefined) = TRUE
CCCn1c(SC)nc(-c2ccc(F)cc2)c1-c1ccnc(NCC)c1 = TRUE
CSc1nc(-c2ccc(F)cc2)c(-c2ccncc2)n1C = TRUE

Task: Problem: For the compound CCCn1c(SC)nc(-c2ccc(F)cc2)c1-c1ccncc1 , is IC50 under 3 µM?
Output: TRUE

Task: Does the reported IC50 of CSc1nc(-c2ccc(F)cc2)c(-c2ccnc(Nc3ccccc3)c2)[nH]1 stay below 3 µM?
Output: TRUE

Task: State whether 3 µM exceeds IC50 recorded for CSc1nc(-c2ccc(F)cc2)c(-c2ccnc(NCc3ccc(Cl)c(Cl)c3)c2)[nH]1 .
Output: TRUE

Task: Say whether its IC50 is strictly beneath 3 µM. Entry: CCCn1c(SC)nc(-c2ccc(F)cc2)c1-c1ccnc(N)c1
Output: FALSE

Task: Take the compound CSc1nc(-c2ccc(F)cc2)c(-c2ccnc(F)c2)[nH]1 and say whether its IC50 is less than 3 µM.
Output: TRUE

Task: Problem: For the compound CSc1nc(-c2ccc(F)cc2)c(-c2ccnc(OC(C)C)c2)[nH]1 , is IC50 under 3 µM?
Output: TRUE

Task: Criterion: IC50 strictly below 3 µM. Is it met by CSc1nc(-c2ccc(F)cc2)c(-c2ccnc(N)c2)n1C ?
Output: FALSE

Task: Please determine if CSc1nc(-c2ccc(F)cc2)c(-c2ccnc(Cl)c2)[nH]1 is below 3 µM in terms of IC50.
Output: TRUE

Task: Hi there! Is IC50 for COc1ccc(CNc2cc(-c3[nH]c(SCc4ccccc4)nc3-c3ccc(F)cc3)ccn2)cc1 below 3 µM, do you know?
Output: FALSE

Task: A record lists CSc1nc(-c2ccc(F)cc2)c(-c2ccnc(NCc3ccc(C)cc3)c2)[nH]1 . Is its IC50 below 3 µM?
Output: TRUE

Task: Confirm or reject: IC50 of CSc1nc(-c2ccc(F)cc2)c(-c2ccnc(NCc3ccccc3)c2)[nH]1 lies strictly below 3 µM
Output: TRUE

Task: Please let me know if CC(Nc1cc(-c2[nH]c(SCc3ccc([S+](C)[O-])cc3)nc2-c2ccc(F)cc2)ccn1)c1ccccc1 (centres undefined) shows IC50 below 3 µM.
Output: TRUE

Task: Is the reported IC50 for CSc1nc(-c2ccc(F)cc2)c(-c2ccnc(NC(C)=O)c2)n1C strictly below 3 µM?
Output: TRUE

Task: Would you kindly verify if IC50 of CSc1nc(-c2ccc(F)cc2)c(-c2ccnc(N(C)Cc3ccccc3)c2)[nH]1 is strictly less than 3 µM?
Output: FALSE

Task: Is IC50 strictly under 3 µM for the entry CC(Nc1cc(-c2[nH]c(SCc3ccccc3)nc2-c2ccc(F)cc2)ccn1)c1ccccc1 (centres undefined) ?
Output: TRUE

Task: I wonder whether CCCn1c(SC)nc(-c2ccc(F)cc2)c1-c1ccnc(NC(C)=O)c1 has IC50 below 3 µM. Can you tell?
Output: TRUE

Task: Could you please tell me whether IC50 recorded for C[S+]([O-])c1ccc(CSc2nc(-c3ccc(F)cc3)c(-c3ccnc(F)c3)[nH]2)cc1 (centres undefined) is less than 3 µM?
Output: FALSE
